Please provide measured IC50 for the entries that follow.
Form entry: value (nM) — number only.

Find IC50 (RSK4 (Homo sapiens, UniProt Q9UK32)) for the entry Cc1cc(=O)n(C2CCC(F)(F)C2)c2nc(Nc3ccc4c(c3)CC(=O)N4)ncc12 (centres unmarked)
86.3

Find IC50 (RSK4 (Homo sapiens, UniProt Q9UK32)) for the entry `Cc1cc(=O)n(C2CCCCC2)c2nc(Nc3ccc4[nH]ccc4c3)ncc12`
45.9
